Reference source: patent US20260184768A1

- assay-system: T1, full-length PcrV.6xhis (Pseudomonas aeruginosa)
- T1 construct: Recombinant full-length V-tip protein of the type 3 secretion system, His-tagged; also called full-length PcrV with a C-terminal hexahistidine tag
- protocol-details: SPR (Biacore T200), mAb captured via anti-human Fc, PcrV injected, 25 C
property-measured: 90 nM Ag Bound (RU)
Reply with the number and its unit after it.

// query Return reported 90 nM Ag Bound (RU); argument: REGN3514 (antibody, V domains shown, also called Control I; Control I-REGN3514) VH: EMQLLESGGGLVQPGGSLRLSCAASGFTFSSYAMNWVRQAPGEGLEWVSAITISGITAYYTDSVKGRFTISRDNSKNTLYLQMNSLRAGDTAVYYCAKEEFLPGTHYYYGMDVWGQGTTVTVSS VL: AIQMTQSPSSLSASVGDRVTITCRASQGIRNDLGWYQQKPGKAPKLVIYSASTLQSGVPSRFSGSGSGTDFTLSISSLQPDDFATYYCLQDYNYPWTFGQGTKVEIKR
// result 169 RU

// query What do you get for H1H29332P (antibody, V domains shown) VH: EVQLVESGGDLVQPGGSLRLSCKASGFTFSTFAMNWVRQAPGRGLEWVSAIGASGYSTYYVDSMKGRFTISRDNSKNTLYLQMNSLGAEDTAVYYCAKEYSVSSNYYYGMDVWGQGTTVTVSS VL: DIQMTQSPSSLSASVGDRVTITCRASQTIRRYLNWYQQKAGKAPKLLIYAASSLLSGVPSRFSASGSGTDFTLTISSLQPEDFSTYYCQQTYSIPITFGQGTRLEIKR ?
// result 152 RU

// query What do you get for H1H29329P (antibody, V domains shown) VH: EVQLVESGGGLVQPGGSLRLSCAASGFTFSDHEMNWVRQAPGKGLEWISYIGSGVVTMYYADSVRGRFTISRDNAKKTLYLQMNSLRAEDTAVYYCARDRGYYFGSEAFHYWGQGTLVTVSS VL: DIQMTQSPSTLSASVGDRVTITCRASQSISNWLAWYQQKPGKAPKLLIYKSSSLESGVPSRFSGSGSGTEFTLTISSLQPDDFATYYCQQYKSYSLTFGGGTKVEIKR ?
// result 81 RU
